Recorded measurements of pIC50, one per entry
Tested on: p-ERK in PNAC-1/HPAC cell
Method: Phospho-ERK 1/2 assay (Table 1)
Assay type: cell-based
Condition details: Homo sapiens; PNAC-1/HPAC cell, 3 hours compound incubation; read-out: p-ERK IC50
Just the number, please; pIC50 means minus log10 of the concentration in mol/L.

A selection of reference data follows.
>  <Compound>
CCc1c(F)ccc2cc(O)cc(-c3nc4c5c(nc(OC[C@@]67CCCN6C[C@H](F)C7)nc5c3F)N3C[C@H]5CC[C@H](N5)[C@H]3CO4)c12

>  <Quantity kind>
pIC50

>  <Recorded measurement>
9.12

$$$$
>  <Compound>
Fc1cc2cccc(F)c2c(-c2nc3c4c(nc(OC[C@@]56CCCN5C[C@H](F)C6)nc4c2F)N2C[C@@H]4CC[C@@H](N4)C2CO3)n1 (stereo partly drawn)

>  <Quantity kind>
pIC50

>  <Recorded measurement>
6.39

$$$$
>  <Compound>
Cc1c(F)ccc2cccc(-c3nc4c5c(nc(OC[C@@]67CCCN6C[C@H](F)C7)nc5c3F)N3C[C@@H]5CC[C@@H](N5)C3CO4)c12 (stereo partly drawn)

>  <Quantity kind>
pIC50

>  <Recorded measurement>
6.63

$$$$
>  <Compound>
C#Cc1cccc2cc(O)cc(-c3nc4c5c(nc(OC[C@@]67CCCN6C[C@H](F)C7)nc5c3F)N3C[C@H]5CC[C@H](N5)[C@H]3CO4)c12

>  <Quantity kind>
pIC50

>  <Recorded measurement>
8.10

$$$$

Q: Consider the compound Fc1ccc2cccc(-c3nc4c5c(nc(OC[C@@]67CCCN6C[C@H](F)C7)nc5c3F)N3C[C@@H]5CC[C@@H](N5)C3CO4)c2c1 (stereo partly drawn) and give its measured pIC50.
Result: 6.45

Q: Consider the compound C#Cc1c(F)ccc2cccc(-c3nc4c5c(nc(OCC6(CN7CCO[C@H](C)C7)CC6)nc5c3F)N3C[C@H]5CC[C@H](N5)[C@H]3CO4)c12 and give its measured pIC50.
Result: 6.41

Q: Consider the compound Oc1cc(-c2nc3c4c(nc(OC[C@@]56CCCN5C[C@H](F)C6)nc4c2F)N2C[C@@H]4CC[C@@H](N4)C2CO3)c2cc(F)ccc2c1 (stereo partly drawn) and give its measured pIC50.
Result: 7.59

Q: Consider the compound Oc1cc(-c2nc3c4c(nc(OC[C@@]56CCCN5C[C@H](F)C6)nc4c2F)N2C[C@@H]4CC[C@@H](N4)C2CO3)c2c(Cl)cccc2c1 (stereo partly drawn) and give its measured pIC50.
Result: 7.48

Q: Consider the compound Cc1cc(N)nc(-c2nc3c4c(nc(OC[C@@]56CCCN5C[C@H](F)C6)nc4c2F)N2CC4CCC(N4)[C@H]2CO3)c1C(F)(F)F (stereo in doubt) and give its measured pIC50.
Result: 6.34

* * *

Recorded measurements of pIC50, one per entry
Test system: HPAC (ATCC CRL-2119) cells
Method: KRAS G12D 3D CellTiter-Glo proliferation assay, HPAC
Type: cell-based
Condition details: Homo sapiens, 168 h, 3D proliferation, 7 days, CellTiter-Glo 3D
Just the number, please; pIC50 means minus log10 of the concentration in mol/L.

>  <Compound>
C#Cc1cccc2cccc(-c3nc4c5c(nc(OC[C@@]67CCCN6C[C@H](F)C7)nc5c3F)N3C[C@H]5CC[C@H](N5)[C@H]3CO4)c12

>  <pIC50>
7.12

$$$$

Q: State its pIC50 on HPAC (ATCC CRL-2119) cells: Oc1cc(Cl)c(C2CC2)c(-c2nc3c4c(nc(OC[C@@]56CCCN5C[C@H](F)C6)nc4c2F)N2C[C@@H]4CC[C@@H](N4)C2CO3)c1 (stereo partly shown)
Result: 8.15

Q: State its pIC50 on HPAC (ATCC CRL-2119) cells: C#Cc1c(F)ccc2cccc(-c3nc4c5c(nc(OC[C@@]67CCCN6C[C@H](F)C7)nc5c3F)N3CC5CCC(N5)[C@H]3CO4)c12 (single isomer, unassigned)
Result: 7.55

Q: State its pIC50 on HPAC (ATCC CRL-2119) cells: CCc1c(F)ccc2cc(O)cc(-c3nc4c5c(nc(OC[C@@]67CCCN6C[C@H](F)C7)nc5c3F)N3C[C@H]5CC[C@H](N5)[C@H]3CO4)c12
Result: 8.48
